assay: Half-life in ddY mouse at 10 mg/kg, po measured after 3 mins by LC-MS/MS analysis; assay type: ADME, organism-based; details: in vivo
Provide the reported half-life of each item.
Respond numerically; units are h and should not be typed.

// half-life lookup, molecule = CN1C(=O)c2[nH]c3ccccc3c2CN2CC[C@@H]1C2.O=S(=O)(O)O , result: 2.52

half-life reported for this molecule CN1C(=O)c2[nH]c3ccccc3c2CN2CC[C@H]1C2.O=S(=O)(O)O : 2.27

For this molecule ( CN1C(=O)c2[nH]c3ccccc3c2CN2CCC[C@H]1C2 ), measured half-life is 2.18

GET /value?item= CN1C(=O)c2[nH]c3ccccc3c2CN2CCC1C2.O=S(=O)(O)O (racemic) &field=half-life returns 1.69

Source of measurements: ChEMBL document CHEMBL4406890
